# TARGET ENTITY: IDO1 enzyme (Homo sapiens, UniProt P14902)
# Sequence (P14902 whole entry): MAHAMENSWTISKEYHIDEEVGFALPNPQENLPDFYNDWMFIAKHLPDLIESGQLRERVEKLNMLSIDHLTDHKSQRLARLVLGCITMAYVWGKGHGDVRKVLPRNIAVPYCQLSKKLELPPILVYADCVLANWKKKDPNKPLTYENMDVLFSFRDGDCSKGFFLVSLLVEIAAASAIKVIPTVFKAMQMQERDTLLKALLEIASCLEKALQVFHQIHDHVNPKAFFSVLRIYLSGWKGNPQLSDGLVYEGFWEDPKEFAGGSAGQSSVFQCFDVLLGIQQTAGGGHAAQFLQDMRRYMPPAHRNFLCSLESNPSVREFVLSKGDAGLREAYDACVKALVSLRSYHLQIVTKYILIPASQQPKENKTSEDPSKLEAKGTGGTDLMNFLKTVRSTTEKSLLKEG
# MEASUREMENT DESCRIPTION: Determination of biochemical activity of IDO1 enzyme (absorbance at 320 nm)
# CONDITION LABEL: room temperature, 3 hours
PARAMETER MEASURED: IC50

Use these answered entries as a reference point.
O=C(Nc1nocc1/C(=N/O)Nc1ccc(F)c(Br)c1)NC1CCNCC1 < 0.001 µM
CS(=O)(=O)NCCNC(=O)Nc1nocc1/C(=N/O)Nc1ccc(F)c(Br)c1 < 0.001 µM
COc1ccc(NC(=O)Nc2nonc2/C(=N/O)Nc2ccc(F)c(Br)c2)cc1 0.1 to 1 µM
O=C(Nc1nonc1/C(=N/O)Nc1ccc(F)c(Br)c1)Nc1coc2ccccc12 0.1 to 1 µM
O/N=C(\Nc1ccc(F)c(Br)c1)c1nonc1NC(=S)NC1CCCCC1 0.1 to 1 µM

Hey, quick one: what's IC50 for each of these?
1. N=C(NCCCO)Nc1nonc1/C(=N/O)Nc1ccc(F)c(Br)c1
2. NCCCNC(=O)Nc1cocc1/C(=N/O)Nc1ccc(F)c(Br)c1
3. COc1ccc(NC(=O)Nc2nocc2/C(=N/O)Nc2ccc(F)c(Cl)c2)cc1
4. O=C(NCCO)Nc1nocc1/C(=N/O)Nc1ccc(F)c(Br)c1

["< 0.001 µM", "0.1 to 1 µM", "0.1 to 1 µM", "< 0.001 µM"]
